TARGET ENTITY: Microtubule-associated protein tau (Homo sapiens)
ASSAY PROCEDURE: Displacement of thiazene red from tau aggregate
EXPERIMENTAL CONTEXT: read-out: IC50
pIC50: −log10 of the molar value.
Each record's class is read off its pIC50 using these ranges: Low: < 6; Medium: ≥ 6 and < 8; High: ≥ 8

CN1CCN(c2ccc(/C=C/c3cc(/C=C/c4ccc(N5CCN(C)CC5)cc4)ncn3)cc2)CC1    Low
CN1CCN(c2ccc(/C=C/c3cnc(/C=C/c4ccc(N5CCN(C)CC5)cc4)cn3)cc2)CC1    Medium
CN(C)c1ccc(/C=C/c2cc(/C=C/c3ccc(N(C)C)cc3)ncn2)cc1    High
CN(C)c1ccc(/C=C/C=C/c2cc(/C=C/C=C/c3ccc(N(C)C)cc3)ncn2)cc1    High
COc1cc(/C=C/c2ccc(O)cc2)ccc1/C=C/c1ccc(O)cc1    Medium

Prompt line: Which class holds C(=C\c1cc(-c2ccccc2)c(/C=C/c2ccc(N3CCOCC3)cc2)nn1)/c1ccc(N2CCOCC2)cc1 ?
Response line: Low

Prompt line: For COc1ccc(-c2cc(/C=C/c3ccc(N(C)C)cc3)nnc2/C=C/c2ccc(N(C)C)cc2)cc1 then?
Response line: Low

Prompt line: For C(=C\c1cc(/C=C/c2ccc(N3CCCC3)cc2)ncn1)/c1ccc(N2CCCC2)cc1 then?
Response line: High

----------
ASSAY PROCEDURE: Displacement of methoxy-XO4 from amyloid beta (1 to 40) aggregate
EXPERIMENTAL READOUT: Ki (nM)
# output: bare number, implied unit nM

Prompt line: Quick one: Ki for [11CH3]Oc1cc(/C=C/c2ccc(O)cc2)ccc1/C=C/c1ccc(O)cc1 ?
Response line: 26.8

----------
ASSAY PROCEDURE: Displacement of thiazene red from amyloid beta (1 to 40) aggregate
EXPERIMENTAL CONTEXT: read-out: IC50
IC50 strictly under 200 nM means Criterion met; at 200 nM or over means Criterion not met.

COc1cc(/C=C/c2ccc(O)cc2)ccc1/C=C/c1ccc(O)cc1    Criterion met
CN(C)c1ccc(/C=C/C=C/c2cc(/C=C/C=C/c3ccc(N(C)C)cc3)ncn2)cc1    Criterion met
CN1CCN(c2ccc(/C=C/c3cnc(/C=C/c4ccc(N5CCN(C)CC5)cc4)cn3)cc2)CC1    Criterion met

Prompt line: For C(=C\c1cc(/C=C/c2ccc(N3CCCC3)cc2)ncn1)/c1ccc(N2CCCC2)cc1 , is the recorded IC50 below the cut-off of 200 nM?
Response line: Criterion met

Prompt line: For CN1CCN(c2ccc(/C=C/c3cc(/C=C/c4ccc(N5CCN(C)CC5)cc4)ncn3)cc2)CC1 then?
Response line: Criterion not met

Prompt line: For COc1ccc(-c2cc(/C=C/c3ccc(N(C)C)cc3)nnc2/C=C/c2ccc(N(C)C)cc2)cc1 then?
Response line: Criterion not met

Prompt line: For C(=C\c1cc(/C=C/c2ccc(N3CCCCC3)cc2)ncn1)/c1ccc(N2CCCCC2)cc1 then?
Response line: Criterion met

----------
ASSAY PROCEDURE: Displacement of thiazene red from amyloid beta (1 to 40) aggregate
EXPERIMENTAL CONTEXT: read-out: IC50
# IC50 per entry
# output: bare number, implied unit nM

Solved cases below.
C(=C\c1cnc(/C=C/c2ccc(N3CCOCC3)cc2)cn1)/c1ccc(N2CCOCC2)cc1    43
COc1ccc(/C=C/c2cnc(/C=C/c3ccc(OC)cc3)cn2)cc1    17
C(=C\c1cc(-c2ccccc2)c(/C=C/c2ccc(N3CCOCC3)cc2)nn1)/c1ccc(N2CCOCC2)cc1    7590
CN(C)c1ccc(/C=C/c2cc(-c3ccccc3F)c(/C=C/c3ccc(N(C)C)cc3)nn2)cc1    10100

// next item, IC50 requested
Prompt line: Quick one: IC50 for CN(C)c1ccc(/C=C/c2cc(/C=C/c3ccc(N(C)C)cc3)ncn2)cc1 ?
Response line: 54

----------
TARGET ENTITY: Microtubule-associated protein tau (Homo sapiens, UniProt P10636)
Sequence (P10636 whole entry): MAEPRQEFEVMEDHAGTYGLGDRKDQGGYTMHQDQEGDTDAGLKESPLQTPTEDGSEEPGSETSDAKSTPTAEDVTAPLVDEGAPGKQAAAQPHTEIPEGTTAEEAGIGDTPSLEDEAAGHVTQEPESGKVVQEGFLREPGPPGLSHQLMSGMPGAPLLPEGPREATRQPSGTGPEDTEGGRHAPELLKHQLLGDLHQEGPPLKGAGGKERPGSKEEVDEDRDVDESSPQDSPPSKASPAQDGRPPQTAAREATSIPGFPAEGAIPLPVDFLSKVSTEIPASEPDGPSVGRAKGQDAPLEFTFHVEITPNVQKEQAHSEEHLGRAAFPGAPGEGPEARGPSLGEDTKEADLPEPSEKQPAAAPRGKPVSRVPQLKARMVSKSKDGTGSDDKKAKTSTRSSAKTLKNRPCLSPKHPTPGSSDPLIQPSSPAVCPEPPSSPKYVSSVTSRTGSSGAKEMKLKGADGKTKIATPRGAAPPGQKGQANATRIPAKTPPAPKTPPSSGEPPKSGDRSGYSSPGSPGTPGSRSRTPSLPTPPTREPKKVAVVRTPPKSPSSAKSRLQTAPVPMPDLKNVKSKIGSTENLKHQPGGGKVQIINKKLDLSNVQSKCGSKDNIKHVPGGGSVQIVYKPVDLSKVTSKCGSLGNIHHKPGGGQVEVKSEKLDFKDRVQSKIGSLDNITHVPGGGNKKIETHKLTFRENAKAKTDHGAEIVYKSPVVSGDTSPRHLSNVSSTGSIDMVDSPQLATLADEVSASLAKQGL
ASSAY PROCEDURE: Displacement of thiazene red from tau aggregate
EXPERIMENTAL CONTEXT: read-out: IC50
EXPERIMENTAL READOUT: pIC50
Lab note — pIC50 values are minus log10 of concentrations in M.

CN(C)c1ccc(/C=C/c2cc(-c3ccccc3F)c(/C=C/c3ccc(N(C)C)cc3)nn2)cc1    5.90
C(=C\c1cc(/C=C/c2ccc(N3CCCCC3)cc2)ncn1)/c1ccc(N2CCCCC2)cc1    7.77
COc1ccc(/C=C/c2cnc(/C=C/c3ccc(OC)cc3)cn2)cc1    7.89

Prompt line: Form: Entry = C(=C\c1cnc(/C=C/c2ccc(N3CCOCC3)cc2)cn1)/c1ccc(N2CCOCC2)cc1 | System = Microtubule-associated protein tau (Homo sapiens, UniProt P10636) | pIC50 = ____
Response line: 8.22

// provenance: ChEMBL document CHEMBL2177056
